Structures can show the parent of a compound that is named as a salt.
A set of compounds tested on KIT (Homo sapiens, UniProt P10721), with measured Kd:

# count of solved cases: 3
CC(C)(C)c1cc(NC(=O)Nc2ccc(-c3cn4c(n3)sc3cc(OCCCN5CCSCC5)ccc34)cc2)no1 ... 0.01 to 0.1 µM
CCOC(=O)CCc1ccc2c(c1)sc1nc(-c3ccc(NC(=O)Nc4cc(C(C)(C)C)on4)cc3)cn12 ... 0.01 to 0.1 µM
CC(C)(C)c1cc(NC(=O)Nc2ccc(-c3cn4c(n3)sc3cc(C(=O)NCCN5CCCCC5)ccc34)cc2)no1 [Compound C20, hydrochloride] ... < 0.01 µM

Query string: What value of measured Kd is listed for CC(C)(C)c1cc(NC(=O)Nc2ccc(-c3cn4c(n3)sc3cc(C(=O)NCCN5CCOCC5)ccc34)cc2)no1 [Compound C19, hydrochloride] ?
Result string: < 0.01 µM

Query string: Check "CCN(CC)CCOc1ccc2c(c1)sc1nc(-c3ccc(NC(=O)Nc4cc(C(C)(C)C)on4)cc3)cn12" too.
Result string: < 0.01 µM

Query string: Check CC(C)(C)c1cc(NC(=O)Nc2ccc(-c3cn4c(n3)sc3cc(CCC(=O)NCCN5CCOCC5)ccc34)cc2)no1 [Compound C9, hydrochloride] too.
Result string: < 0.01 µM

Query string: Check CCN(CC)CCNC(=O)c1ccc2c(c1)sc1nc(-c3ccc(NC(=O)Nc4cc(C(C)(C)C)on4)cc3)cn12 [Compound C22, hydrochloride] too.
Result string: < 0.01 µM

Query string: Check CN1CCN(CCOc2ccc3c(c2)sc2nc(-c4ccc(NC(=O)Nc5cc(C(C)(C)C)on5)cc4)cn23)CC1 [Compound B4, hydrochloride] too.
Result string: < 0.01 µM

Query string: Check CC(C)(C)c1cc(NC(=O)Nc2ccc(-c3cn4c(n3)sc3cccc(OCCN5CCOCC5)c34)cc2)no1 [Compound B11, hydrochloride] too.
Result string: 0.01 to 0.1 µM

Query string: Check CC(C)(C)c1cc(NC(=O)Nc2ccc(-c3cn4c(n3)sc3cc(CCC(=O)NCCN5CCCC5)ccc34)cc2)no1 [Compound C11, hydrochloride] too.
Result string: < 0.01 µM

Query string: Check CC(C)(C)c1cc(NC(=O)Nc2ccc(-c3cn4c(n3)sc3cc(CC(=O)NCCN5CCCC5)ccc34)cc2)no1 [Compound C15, hydrochloride] too.
Result string: < 0.01 µM

Query string: Check "CN1CCN(CCCOc2ccc3c(c2)sc2nc(-c4ccc(NC(=O)Nc5cc(C(C)(C)C)on5)cc4)cn23)CC1" too.
Result string: 0.01 to 0.1 µM

Query string: Check CC(C)(C)c1cc(NC(=O)Nc2ccc(-c3cn4c(n3)sc3cc(CCCN5CCCCC5)ccc34)cc2)no1 [Compound D4, hydrochloride] too.
Result string: 0.01 to 0.1 µM

Query string: Check CC(C)(C)c1cc(NC(=O)Nc2ccc(-c3cn4c(n3)sc3cc(C(=O)N5CCNCC5)ccc34)cc2)no1 [Compound C24, hydrochloride] too.
Result string: < 0.01 µM

Query string: Check CC(C)(C)c1cc(NC(=O)Nc2ccc(-c3cn4c(n3)sc3cc(CC(=O)NCCN5CCOCC5)ccc34)cc2)no1 [Compound C13, hydrochloride] too.
Result string: < 0.01 µM
